Let's look at some compounds and their measured Percent Effect.
# tgt: Polyketide synthase Pks13 (Mycobacterium tuberculosis (strain ATCC 25618 / H37Rv))
# method-summary: Mycobacterium tuberculosis Polyketide synthase 13 Thioesterase (PKS13)
# Type: functional
# Set-up: scale not given: in the data most compounds retested in dose-response had high values
# stated-conditions: 30 µM
Hit rate of the full screen: of about 67,000 compounds, about 300 (0.45%) showed an effect of 50% or more. What follows is part of a selection rich in strong results, with near analogues and random picks from the rest.
recorded-metric: Percent Effect (%)

- structure-string: "O=S(=O)(c1c(N2CCCC2)ccc2nonc12)N1CCCC1"
  recorded-metric: "Percent Effect"
  value-observed: 32.4
- structure-string: "Cc1nnc([C@H]2C[C@H]3OCC[C@H]3N(S(=O)(=O)N(C)C)C2)o1"
  recorded-metric: "Percent Effect"
  value-observed: -28.4
- structure-string: "O=S(=O)(c1ccc(N2CCCCC2)c2nonc12)N1CCCCC1"
  recorded-metric: "Percent Effect"
  value-observed: 29.3
- structure-string: "CS(=O)(=O)c1ccc(-c2nc(C(=O)N3CCCC3)n3ccccc23)cc1"
  recorded-metric: "Percent Effect"
  value-observed: 74.1
- structure-string: "COCCN(C)CC(=O)N1C[C@H]2CC[C@@H]1CN(C(=O)c1ccncc1)C2"
  recorded-metric: "Percent Effect"
  value-observed: -9.17
- structure-string: "CN(C)C(=O)c1nc(-c2ccc(S(C)(=O)=O)cc2)c2cnccn12"
  recorded-metric: "Percent Effect"
  value-observed: 9.33

###

The following compounds are listed with their measured Percent Effect values.
# tgt: Polyketide synthase Pks13 (Mycobacterium tuberculosis (strain ATCC 25618 / H37Rv))
# method-summary: Mycobacterium tuberculosis Polyketide synthase 13 Thioesterase (PKS13)
# Assay type: functional
# Design: scale not given: in the data most compounds retested in dose-response had high values
# stated-conditions: 30 µM
The campaign covered roughly 67,000 compounds. About 300 (0.45%) showed an effect of 50% or more. This is one part of a sample in which strong results are shown more often than they occur.

- structure-string: "NC(=O)COc1ccc(CN2CC[C@@]3(O)CCCC[C@H]3C2)cc1Cl"
  Percent Effect: "-1.23%"
- structure-string: "N#Cc1cc(C#N)c(SCCC(=O)Nc2ccc(F)cc2)nc1N"
  Percent Effect: "-20.2%"
- structure-string: "Cn1cc(CN2C[C@@H]3OCCN(CC4CCCC4)[C@@H]3C2)cn1"
  Percent Effect: "-22.6%"
- structure-string: "CC(C)c1cc(N2CC[C@H](F)C2)n2nccc2n1"
  Percent Effect: "-11.1%"
- structure-string: "N#Cc1cc(C#N)c(SCC(=O)NCc2ccc(F)cc2)nc1N"
  Percent Effect: "-6.72%"
- structure-string: "Cc1cc(NCc2cccc(C#N)c2)ccc1C(N)=O"
  Percent Effect: "-10.5%"
- structure-string: "Cc1cc(NCc2cccc(C#N)c2)ccc1Br"
  Percent Effect: "58.5%"
- structure-string: "Cc1cc(NCc2cccc(C#N)c2)ccc1C(=O)N(C)C"
  Percent Effect: "-4.66%"
- structure-string: "O=C(c1cc(F)cc(F)c1)N1C[C@H]2CNC[C@H]2C1"
  Percent Effect: "-29.4%"
- structure-string: "CC(C)c1cc(N2CCC(N)CC2)n2nccc2n1"
  Percent Effect: "61.4%"
- structure-string: "N#Cc1cc(C#N)c(SCC(=O)Nc2ccc(F)cc2)nc1N"
  Percent Effect: "65.2%"
- structure-string: "Cc1cccc(CN2C[C@@H]3COC[C@]3(COc3cccnc3)C2)n1"
  Percent Effect: "8.46%"
